- experiment_notes: activity coefficient (dimensionless); of the first substance listed, at infinite dilution; xn = mol fraction of the nth substance listed
- condition_info: 318.15 K; 101 kPa; Liquid; Chromatography; x1 = 0
parameter_measured: activity coefficient

# compound, parameter_measured, reading
records = [
    ("C#CCCC [1-pentyne] + CCCC[N+]1(C)CCOCC1.N#C[C-](C#N)C#N", "activity coefficient", 3.69),
    ("CCCC(=O)OC [methyl butanoate] + CCCC[N+]1(C)CCOCC1.N#C[C-](C#N)C#N", "activity coefficient", 2.42),
    ("Cc1ccccc1C [1,2-dimethylbenzene] + CCCC[N+]1(C)CCOCC1.N#C[C-](C#N)C#N", "activity coefficient", 2.96),
    ("C=CCCCCCC [oct-1-ene] + CCCC[N+]1(C)CCOCC1.N#C[C-](C#N)C#N", "activity coefficient", 52.7),
    ("C=C(C)c1ccccc1 [(1-methylethenyl)benzene] + CCCC[N+]1(C)CCOCC1.N#C[C-](C#N)C#N", "activity coefficient", 2.8),
    ("CCCCCCC [heptane] + CCCC[N+]1(C)CCOCC1.N#C[C-](C#N)C#N", "activity coefficient", 84),
    ("CC(C)OC(C)C [diisopropyl ether] + CCCC[N+]1(C)CCOCC1.N#C[C-](C#N)C#N", "activity coefficient", 17.8),
    ("CCCO [propan-1-ol] + CCCC[N+]1(C)CCOCC1.N#C[C-](C#N)C#N", "activity coefficient", 1.62),
    ("CCc1ccccc1 [ethylbenzene] + CCCC[N+]1(C)CCOCC1.N#C[C-](C#N)C#N", "activity coefficient", 3.74),
]

====

- experiment_notes: activity coefficient (dimensionless); of the first substance listed, at infinite dilution; xn = mol fraction of the nth substance listed
- condition_info: 358.15 K; 101 kPa; Liquid; Chromatography; x1 = 0
Items are presented alongside their recorded activity coefficient.

# compound, activity coefficient
measured = [
    ("Cc1cccc(C)c1 [1,3-dimethylbenzene] + CCCC[N+]1(C)CCOCC1.N#C[C-](C#N)C#N", 3.62),
    ("CCCCC [pentane] + CCCC[N+]1(C)CCOCC1.N#C[C-](C#N)C#N", 27.7),
    ("CCCO [propan-1-ol] + CCCC[N+]1(C)CCOCC1.N#C[C-](C#N)C#N", 1.29),
    ("CCCCCCCCC [nonane] + CCCC[N+]1(C)CCOCC1.N#C[C-](C#N)C#N", 126),
    ("O [water] + CCCC[N+]1(C)CCOCC1.N#C[C-](C#N)C#N", 0.819),
    ("C#CCCCCCC [1-octyne] + CCCC[N+]1(C)CCOCC1.N#C[C-](C#N)C#N", 12),
    ("CCC(C)(C)C [2,2-dimethylbutane] + CCCC[N+]1(C)CCOCC1.N#C[C-](C#N)C#N", 37.7),
    ("C=CCCCCCC [oct-1-ene] + CCCC[N+]1(C)CCOCC1.N#C[C-](C#N)C#N", 40.6),
    ("C1CCCCCCC1 [cyclooctane] + CCCC[N+]1(C)CCOCC1.N#C[C-](C#N)C#N", 27),
]

====

- experiment_notes: activity coefficient (dimensionless); of the first substance listed, at infinite dilution; xn = mol fraction of the nth substance listed
- condition_info: 318.15 K; 101 kPa; Liquid; Chromatography; x1 = 0
Param threshold (3) applies to activity coefficient; output Condition met when value >= threshold, Condition not met when value < threshold.

# molecule, label_value
data = [
    ("C1=CCCCC1 [cyclohexene] + CCCC[N+]1(C)CCOCC1.N#C[C-](C#N)C#N", "Condition met"),
    ("CCCCCCCCC [nonane] + CCCC[N+]1(C)CCOCC1.N#C[C-](C#N)C#N", "Condition met"),
    ("CCOC(C)=O [ethyl acetate] + CCCC[N+]1(C)CCOCC1.N#C[C-](C#N)C#N", "Condition not met"),
    ("c1ccccc1 [benzene] + CCCC[N+]1(C)CCOCC1.N#C[C-](C#N)C#N", "Condition not met"),
    ("Cc1ccc(C)cc1 [1,4-dimethylbenzene] + CCCC[N+]1(C)CCOCC1.N#C[C-](C#N)C#N", "Condition met"),
]

====

- experiment_notes: activity coefficient (dimensionless); of the first substance listed, at infinite dilution; xn = mol fraction of the nth substance listed
- condition_info: 338.15 K; 101 kPa; Liquid; Chromatography; x1 = 0

# molecule, activity coefficient
rows = [
    ("O [water] + CCCC[N+]1(C)CCOCC1.N#C[C-](C#N)C#N", 0.916),
    ("c1ccsc1 [thiophene] + CCCC[N+]1(C)CCOCC1.N#C[C-](C#N)C#N", 1.06),
    ("CO [methanol] + CCCC[N+]1(C)CCOCC1.N#C[C-](C#N)C#N", 0.762),
    ("CCOCC [diethyl ether] + CCCC[N+]1(C)CCOCC1.N#C[C-](C#N)C#N", 5.27),
    ("CC(C)O [propan-2-ol] + CCCC[N+]1(C)CCOCC1.N#C[C-](C#N)C#N", 1.5),
    ("CCCCCCC [heptane] + CCCC[N+]1(C)CCOCC1.N#C[C-](C#N)C#N", 69.6),
    ("CCO [ethanol] + CCCC[N+]1(C)CCOCC1.N#C[C-](C#N)C#N", 1.12),
    ("c1ccncc1 [pyridine] + CCCC[N+]1(C)CCOCC1.N#C[C-](C#N)C#N", 0.758),
    ("CCCCCCCCC [nonane] + CCCC[N+]1(C)CCOCC1.N#C[C-](C#N)C#N", 151),
]

====

- experiment_notes: activity coefficient (dimensionless); of the first substance listed, at infinite dilution; xn = mol fraction of the nth substance listed
- condition_info: 348.15 K; 101 kPa; Liquid; Chromatography; x1 = 0

# compound, activity coefficient
records = [
    ("C1CCCCC1 [cyclohexane] + CCCC[N+]1(C)CCOCC1.N#C[C-](C#N)C#N", 18),
    ("CCO [ethanol] + CCCC[N+]1(C)CCOCC1.N#C[C-](C#N)C#N", 1.06),
    ("c1ccccc1 [benzene] + CCCC[N+]1(C)CCOCC1.N#C[C-](C#N)C#N", 1.58),
    ("CCOCC [diethyl ether] + CCCC[N+]1(C)CCOCC1.N#C[C-](C#N)C#N", 5.24),
    ("CC(C)OC(C)C [diisopropyl ether] + CCCC[N+]1(C)CCOCC1.N#C[C-](C#N)C#N", 16.5),
    ("C=CCCCCCC [oct-1-ene] + CCCC[N+]1(C)CCOCC1.N#C[C-](C#N)C#N", 43),
    ("C1CCCC1 [cyclopentane] + CCCC[N+]1(C)CCOCC1.N#C[C-](C#N)C#N", 12.1),
    ("C#CCCC [1-pentyne] + CCCC[N+]1(C)CCOCC1.N#C[C-](C#N)C#N", 3.8),
    ("CCCCCCCCC [nonane] + CCCC[N+]1(C)CCOCC1.N#C[C-](C#N)C#N", 137),
]

====

- experiment_notes: activity coefficient (dimensionless); of the first substance listed, at infinite dilution; xn = mol fraction of the nth substance listed
- condition_info: 328.15 K; 101 kPa; Liquid; Chromatography; x1 = 0
With a cut-off of 2, any activity coefficient strictly below it is called Yes; any activity coefficient meeting it or above is called No.

# molecule, label_value
data = [
    ("O [water] + CCCC[N+]1(C)CCOCC1.N#C[C-](C#N)C#N", "Yes"),
    ("CCCCCCCCCC [decane] + CCCC[N+]1(C)CCOCC1.N#C[C-](C#N)C#N", "No"),
    ("C=C(C)c1ccccc1 [(1-methylethenyl)benzene] + CCCC[N+]1(C)CCOCC1.N#C[C-](C#N)C#N", "No"),
    ("CCC(C)(C)OC [2-methoxy-2-methylbutane] + CCCC[N+]1(C)CCOCC1.N#C[C-](C#N)C#N", "No"),
    ("Cc1ccccc1 [toluene] + CCCC[N+]1(C)CCOCC1.N#C[C-](C#N)C#N", "No"),
    ("CC(C)=O [acetone] + CCCC[N+]1(C)CCOCC1.N#C[C-](C#N)C#N", "Yes"),
    ("CCCCCCCCC [nonane] + CCCC[N+]1(C)CCOCC1.N#C[C-](C#N)C#N", "No"),
    ("CCCC(=O)OC [methyl butanoate] + CCCC[N+]1(C)CCOCC1.N#C[C-](C#N)C#N", "No"),
    ("c1ccncc1 [pyridine] + CCCC[N+]1(C)CCOCC1.N#C[C-](C#N)C#N", "Yes"),
    ("CCCC(C)=O [pentan-2-one] + CCCC[N+]1(C)CCOCC1.N#C[C-](C#N)C#N", "Yes"),
    ("CC#N [acetonitrile] + CCCC[N+]1(C)CCOCC1.N#C[C-](C#N)C#N", "Yes"),
    ("CCC(=O)CC [pentan-3-one] + CCCC[N+]1(C)CCOCC1.N#C[C-](C#N)C#N", "Yes"),
    ("CCCCC [pentane] + CCCC[N+]1(C)CCOCC1.N#C[C-](C#N)C#N", "No"),
    ("C=CCCCCCCCC [1-decene] + CCCC[N+]1(C)CCOCC1.N#C[C-](C#N)C#N", "No"),
    ("COC(C)(C)C [2-methoxy-2-methylpropane] + CCCC[N+]1(C)CCOCC1.N#C[C-](C#N)C#N", "No"),
    ("CC1CCCCC1 [methylcyclohexane] + CCCC[N+]1(C)CCOCC1.N#C[C-](C#N)C#N", "No"),
    ("C1CCCCCCC1 [cyclooctane] + CCCC[N+]1(C)CCOCC1.N#C[C-](C#N)C#N", "No"),
    ("CCOC(C)=O [ethyl acetate] + CCCC[N+]1(C)CCOCC1.N#C[C-](C#N)C#N", "Yes"),
]
